assay: NCI Yeast Anticancer Drug Screen. Data for the bub3 strain (AID 167); settings: S. cerevisiae bub3 mutant strain, at 50.0 µM (retest, dose inferred, filed as 5.0)
About 79,000 compounds went through this panel and 15% of them were active in at least one assay; those are over-represented in the sample as a whole. The source made the active and inactive calls. Cut-off read from the data, not from the text of the source: active = growth inhibition above about 70%; inactive = the rest.
Please answer using one outcome listed in Y for active, N for inactive

BrCc1ccccc1C(c1ccccc1)c1ccccc1 ... Y
O=C1C(Cl)=C(Cl)C(Cl)(Cl)C(Cl)C1(Cl)Cl (configuration not stated) ... Y
CN(C)Cc1cccc(CN(C)C)[c]1[Sn]([Br])([c]1ccccc1)[c]1ccccc1 ... Y
CCOC(=O)c1csc(Br)n1 ... N
CCOC(=O)[C@]1(Br)CC[C@@]1(Br)C(=O)OCC ... N
NC(N)=N/N=C/c1cc(Cl)cc(Cl)c1O ... Y
CCOC(=O)C1=C(C)NC(C)=C(C(=O)OCC)C1c1ccc(C)cc1 ... Y
OC(CN1CCCCC1)c1cc(Cl)c(Cl)c(Cl)c1 (configuration not stated) ... N

input: For this compound, state the assay outcome: "O=C(NC(=S)Nc1ccccn1)c1ccccc1"
output: N

input: What did this assay record as the result for "CSc1s[s+]c(SC)c1-c1ccccc1" ?
output: Y

input: // outcome(item) with item = "CCCCCCCCCCCCCCCCNC(=O)/C(=C\c1ccc(Cl)c(Cl)c1)NC(=O)c1ccccc1"
output: N

input: // param item: CN(C)CC1CCCc2ccccc2C1=O (configuration not stated) ; yields the recorded call
output: N

###

test: NCI Yeast Anticancer Drug Screen. Data for the sgs1 mgt1 strain (AID 161);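 note: 0% = growth of cultures given vehicle only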; conditions: S. cerevisiae sgs1 mgt1 strain, at 5.0 µM (retest, dose inferred, filed as 0.5), hits give high values
The panel holds about 79,000 compounds, 15% with a hit somewhere; the sample as a whole holds those more often. Active and inactive are the calls of the source. Cut-off read from the data, not from the text of the source: active = growth inhibition above about 70%; inactive = the rest.
REPORTED_METRIC: growth inhibition

Take each entry in turn and give its growth inhibition.
1. CCN1/C(=C/c2ccc3ccccc3[n+]2CC)C=Cc2ccccc21
2. COc1ccc(S(=O)(=O)N/N=C\c2cc([N+](=O)[O-])cc(I)c2O)c(OC)c1OC
3. O=C(O)c1cccc2cccc(-c3c4ccc(=O)cc-4oc4cc(O)ccc34)c12
4. Cc1cc(C(C)(C)CC(C)(C)C)cc(O)c1O
5. CCCc1[nH]nc(C(N)=O)c1N=NN(C)C
6. C(=N/NC1=NCCN1)/c1c2ccccc2c(/C=N\NC2=NCCN2)c2ccccc12
7. NP1(Oc2ccc(F)cc2)=NP(N)(Oc2ccc(F)cc2)=NP(Oc2ccc(F)cc2)(Oc2ccc(F)cc2)=N1 (stereo not given)
8. O=S(=O)(N/N=C/c1cccc(Cl)c1)c1ccccc1

output:
1: 7% (inactive); 2: 13% (inactive); 3: 1% (inactive); 4: 4% (inactive); 5: -55% (inactive); 6: -7% (inactive); 7: 1% (inactive); 8: -1% (inactive)

Below are 3 compounds. Give each one its growth inhibition.
1. O=C(Nc1ccc2c(c1)Cc1c-2ccc([N+](=O)[O-])c1F)C(F)(F)F
2. OC(CN1CCCCC1)c1cc(Cl)c(Cl)c(Cl)c1 (stereo not given)
3. S=C(S)NCC1CCC(CNC(=S)S)CC1 (stereo not given)

output:
23% (inactive)
12% (inactive)
-13% (inactive)

I have 2 compounds here; please give me growth inhibition for each one.
1. CC(=O)C1=C(C)O/C(=C/c2cccc(Cl)c2)C1=O
2. ClCCn1c(CCl)nc2ccc(Cl)cc21

output:
1. 10% (inactive)
2. 18% (inactive)

###

test: NCI Yeast Anticancer Drug Screen. Data for the mec2-1 strain (AID 157); details: S. cerevisiae mec2-1 strain, at 33.0 µM
About 79,000 compounds went through this panel and 15% of them were active in at least one assay; those are over-represented in the sample as a whole. Active and inactive are the calls of the source. No stated cut-off is given here; in the data, active means growth inhibition above about 70%; inactive means the rest.
Give one outcome, nothing more. List: TRUE = active, FALSE = inactive

O=[N+]([O-])/C(C(Cl)=C(Cl)Cl)=C1/OCCS1 ... TRUE
CCC(C)(c1ccc(O)c(C)c1)c1ccc(O)c(C)c1 ... TRUE
O=[N+]([O-])c1c(/C=N/Nc2ccccc2)oc(-c2ccc3c(c2)OCO3)c1-c1ccc2c(c1)OCO2 ... FALSE
CNc1nc(C)nc2c1cnn2-c1ccc([N+](=O)[O-])cc1 ... FALSE
Nc1ccc(CCl)cc1Cc1c(O)ccc2ccccc12 ... FALSE

Attention now shifts to the item below.
input: What was the test verdict on "N#Cc1sc2c(c1OC(=O)c1ccco1)c(=O)n(-c1ccccc1)c(=S)n2-c1ccccc1" ?
output: FALSE

###

assay: NCI Yeast Anticancer Drug Screen. Data for the rad52 strain (AID 147);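 note: 0% = growth of vehicle-treated control cultures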; details: S. cerevisiae rad52 mutant growth inhibition; at 33.0 µM; hits give high values
About 79,000 compounds went through this panel and 15% of them were active in at least one assay; those are over-represented in the sample as a whole.
REPORTED_METRIC: growth inhibition (%)
Numbers only, in %.

Field: example entries. Status: answers known.
CC1=CCCC2C1(C)CCC(C)C2(C)Cc1cc(O)ccc1O (configuration not stated) ... 98
CN(C)CCNc1cccc2sc3ccc(O)cc3c(=O)c12 ... 20
COc1ccc(N=Nc2ccc3oc(=O)c(C(=O)Nc4ccccc4)cc3c2)cc1 ... 96
COC(=O)/C=C1/OC(c2ccc(Br)cc2)=C(Br)C1=O ... -7
O=C(N/N=C\c1c(Cl)cccc1Cl)N/N=C/c1c(Cl)cccc1Cl ... 22

Required: growth inhibition, one value per compound below.
1. O=C1c2ccccc2CCC1(Br)Br
2. Cc1ccc(S(=O)(=O)N/N=C/C2(c3ccccc3)c3ccccc3-c3ccccc32)cc1
3. CCOC(=O)C1=C(C)NC(C)=C(C(=O)OCC)C1c1ccccc1Cl
4. ClCCn1c(CCl)nc2ccc(Cl)cc21
5. O=NN(CCCl)C(=O)NC1CCCCC1
6. C=C(CCCO)[C@@H]1CC[C@@](C)(O)[C@H]1C
7. O=C1CSC(=S)N1Cc1ccc(Cl)cc1Cl

output:
[99, 93, 42, 69, 44, -8, 99]

###

experiment: NCI Yeast Anticancer Drug Screen. Data for the rad52 strain (AID 147);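 note: 0% = growth of vehicle-treated control cultures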; conditions: S. cerevisiae rad52 mutant growth inhibition; at 11.0 µM; hits give high values
The panel holds about 79,000 compounds, 15% with a hit somewhere; the sample as a whole holds those more often.
# cutoff 10% applies to growth inhibition; >= gives Satisfied, < gives Not satisfied

// known answers, use as guide
COc1cc(N)ccc1Nc1c2ccccc2nc2ccccc12 ... Satisfied
CCCCCCCCN1C(=O)c2ccccc2C1=O ... Not satisfied
CCOP1(=O)C=C(Sc2ccc([N+](=O)[O-])cc2[N+](=O)[O-])C(C)(C)O1 (configuration not stated) ... Satisfied
O=S(=O)(N/N=C/c1cccc(Cl)c1)c1ccccc1 ... Not satisfied
O=C1C=CC(=O)N1c1ccc2c(c1)OCO2 ... Satisfied
Cn1c2nc3ccccc3c-2nc2ccccc21 ... Satisfied
C=C(C)[C@@H]1CCc2c(O)c(O)c(=O)cc(C)c2C1 ... Satisfied
CCC(c1ccc(O)cc1)C(CC)c1ccc(OCCN)cc1 (configuration not stated) ... Not satisfied

input: Say whether "O=C(O)c1[nH]c(=O)c2ccccc2c1Nc1ccccc1" shows growth inhibition of 10% or more.
output: Not satisfied

input: Decide: is the reported value of growth inhibition for "O=Nn1c2ccccc2c2ccccc21" equal to or greater than 10%?
output: Not satisfied

input: Threshold query (growth inhibition >= 10%) on Nc1nc(F)nc2c1ncn2C1OC(COP(=O)(O)O)C(O)C1O (configuration not stated)
output: Satisfied

###

test: NCI Yeast Anticancer Drug Screen. Data for the wt2 strain (AID 169);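 note: 0% = growth of vehicle-treated yeast cultures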; conditions: S. cerevisiae wt2 strain growth inhibition; at 11.0 µM
About 79,000 compounds went through this panel and 15% of them were active in at least one assay; those are over-represented in the sample as a whole. The source made the active and inactive calls. Cut-off read from the data, not from the text of the source: active = growth inhibition above about 70%; inactive = the rest.
// allowed return values: active, inactive

CCN(CC)CC(O)C1CCC(c2ccccc2)CC1 (configuration not stated) ... inactive
COc1ccc(N=Nc2ccc3oc(=O)c(C(=O)Nc4ccccc4)cc3c2)cc1 ... active
O=NN(CCCl)C(=O)NCCCl ... inactive
S=P(N1CC1)(N1CC1)N1CC1 ... inactive

input: Look up the recorded call for "COC(=O)c1cccc(C)c1C(=O)c1c(C)cc(C)cc1C" in this test.
output: inactive

input: Recorded call for "OCCNCCOc1ccc(/C(=C(/Cl)c2ccccc2)c2ccccc2)cc1" ?
output: inactive

input: Hi team, can someone confirm the assay call for "Cc1ccc(I)cc1N=C=S" ?
output: inactive

input: Could you check what this test reported for "CCOC(=O)c1csc(Br)n1" ?
output: inactive

input: How was "CN(N=O)C(=O)N[C@@H](C=O)[C@@H](O)[C@H](O)[C@H](O)CO" classified in this test?
output: inactive

input: Field: outcome | Entry: "CCOC(=O)C1=C(C)NC(C)=C(C(=O)OCC)C1c1ccc(C)cc1"
output: inactive

input: Name the outcome recorded for O=C1C(Cl)=C(Cl)C(Cl)(Cl)C(Cl)C1(Cl)Cl (configuration not stated) in the assay.
output: inactive

input: Which outcome did this test record for the compound "C/C=C/[P+](c1ccccc1)(c1ccccc1)c1ccccc1" ?
output: inactive
